- Measurement Description: NIH:OVCAR-3 ovarian cancer cell cytotoxicity, dose response, PAX8 inhibitor project, plate reader, dry powder samples (AID 743044)
- Condition: NIH:OVCAR-3 ovarian cancer cell viability; at 35 µM, stronger effect = lower value unless noted
Measured potencies and affinities stand elsewhere. Results filed as inconclusive are left out. Calls of active or inactive are those of the source. How the calls were made is not given here.
Reported Property: max activity

[
  {
    "Query Smiles": "O=C(C[C@@H]1CC[C@H]2[C@@H](COC[C@H](O)CN2C(=O)Nc2ccc(Cl)c(Cl)c2)O1)NCc1ccc(Cl)cc1",
    "Observed Measurement": "-36.1% (inactive)"
  }
]

----------
- System: wheat germ agglutinin (Triticum aestivum), Alexa647-labelled
- Measurement Description: wheat germ agglutinin binders on compound microarrays, profiling panel, artefact control for SMM control-protein annotation, biochemical, small-molecule microarray, 635/667 nm fluorescence (AID 1140);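 further: score merges 667 nm feature emission with signal to noise over triplicate slides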
- Condition: WGA-A647 binding, 635 nm fluorescence, higher = more signal

[
  {
    "Query Smiles": "Cc1ccc(S[C@]2(C(=O)NC3CC3)CC(=O)N(Cc3ccccc3C(F)(F)F)[C@@H]2c2ccc(CO)cc2I)cc1",
    "Subject Of Test": "wheat germ agglutinin (Triticum aestivum), Alexa647-labelled",
    "composite z-score": 0.74
  },
  {
    "Query Smiles": "C=C(COC)/C(=C/C[C@H](OC(C)=O)c1cccc(OCCO)c1)c1cc(C(=O)OC)ccc1OC",
    "Subject Of Test": "wheat germ agglutinin (Triticum aestivum), Alexa647-labelled",
    "composite z-score": -1.08
  },
  {
    "Query Smiles": "C=C(COC)C(=O)CC[C@H](OC(=O)c1ccccc1-c1ccccc1C(=O)O)c1ccccc1OCCO",
    "Subject Of Test": "wheat germ agglutinin (Triticum aestivum), Alexa647-labelled",
    "composite z-score": -0.179
  },
  {
    "Query Smiles": "CC(C)(C)OC(=O)CC[C@@]1(C(=O)N2CCOCC2)N=C(c2ccc(OCCCO)cc2)O[C@@H]1c1ccccc1",
    "Subject Of Test": "wheat germ agglutinin (Triticum aestivum), Alexa647-labelled",
    "composite z-score": 1.54
  },
  {
    "Query Smiles": "COc1ccc([Si](C)(C)[C@H]2[C@H](CC(=O)N(CCO)Cc3ccccc3)O[C@@]3(C(=O)N(Cc4ccc(N5CCOC5=O)cc4)c4ccccc43)[C@@H]2C)cc1",
    "Subject Of Test": "wheat germ agglutinin (Triticum aestivum), Alexa647-labelled",
    "composite z-score": 0.455
  },
  {
    "Query Smiles": "CN(C)CCCC[C@@H]1NC(=O)[C@@H]2C[C@H](C(=O)NCCCCCNC(=O)CS)[C@H](c3cccc(OCCO)c3)N2C1=O",
    "Subject Of Test": "wheat germ agglutinin (Triticum aestivum), Alexa647-labelled",
    "composite z-score": 0.626
  },
  {
    "Query Smiles": "C=CCNC(=O)[C@@H]1[C@H]2C(=O)O[C@H](c3ccccc3)[C@H](c3ccccc3)N2[C@H](c2ccc(O)cc2)[C@@]12C(=O)Nc1ccc(C#Cc3ccc(OC)cc3)cc12",
    "Subject Of Test": "wheat germ agglutinin (Triticum aestivum), Alexa647-labelled",
    "composite z-score": 1.14
  }
]

----------
- Subject Of Test: Pro-neuregulin-1, membrane-bound isoform (Homo sapiens)
- Measurement Description: NRG1 binders on small-molecule microarrays, primary screen, psychiatric disease protein project, biochemical, small-molecule microarray, fluorescence 635/667 (AID 1075);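 further: score combines 667 nm spot fluorescence with signal to noise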
- Condition: NRG1 binding, 635 nm fluorescence, higher = more signal
Label YES when composite z-score is at or above 0.3; otherwise label NO.

[
  {
    "Molecule": "CCOC(=O)C[C@H]1[C@H](OC(=O)Cc2ccc3c(c2)OCO3)[C@@H](NC(=O)c2ccc3ccccc3c2)c2cc(OCCCO)ccc2N1C(=O)c1ccc2ccccc2n1",
    "Category Label": "YES"
  },
  {
    "Molecule": "C=CCNC(=O)[C@@H]1[C@H]2C(=O)O[C@H](c3ccccc3)[C@H](c3ccccc3)N2[C@H](c2ccc(O)cc2)[C@@]12C(=O)Nc1ccc(C#Cc3ccc(OC)cc3)cc12",
    "Category Label": "YES"
  },
  {
    "Molecule": "Cc1ccc(N2C(=O)c3ccccc3[C@](C)(C(=O)NC3CC3)[C@@H]2c2ccc(CO)cc2)nc1",
    "Category Label": "NO"
  },
  {
    "Molecule": "CN(C)CCCC[C@@H]1NC(=O)[C@@H]2C[C@H](C(=O)NCCCCCNC(=O)CS)[C@H](c3cccc(OCCO)c3)N2C1=O",
    "Category Label": "NO"
  },
  {
    "Molecule": "C=CCC(OC(C)=O)[C@@H]1[C@@H](N(Cc2ccc(-c3ccccc3)cc2)C(=O)c2ccc(-c3ccccc3)cc2)c2cc(OCCCO)ccc2N1C(=O)c1ccc(-c2ccccc2)cc1 (stereo partly specified)",
    "Category Label": "NO"
  }
]

----------
- System: Chordin-like protein 2 (CHRDL2)
- Measurement Description: CHRDL2 small-molecule binders, primary screen, biochemical, small-molecule microarray, 635 nm fluorescence (AID 1126);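 further: printed compound slides probed with Chrdl2 protein at 4 µg/mL for 1 h at 4 C; score merges 667 nm emission intensity with signal to noise over three replicate slides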
- Condition: small-molecule microarray binding, fluorescence 635 nm; higher = more signal
Reported Property: composite z-score

[
  {
    "Molecule": "COc1ccc([Si](C)(C)[C@H]2[C@H](CCO)O[C@@]3(C(=O)N(Cc4ccc(N5C(=O)c6cccc7cccc5c67)cc4)c4ccccc43)[C@@H]2C)cc1",
    "Reported Property": "composite z-score",
    "Observed Measurement": -1.06
  },
  {
    "Molecule": "C/C=C/[C@@H](CCn1cc(CCO[Si](C(C)C)(C(C)C)C(C)C)nn1)[Si](C)(C)c1ccc(OC)cc1",
    "Reported Property": "composite z-score",
    "Observed Measurement": -1.8
  },
  {
    "Molecule": "CCCCCCC#C[Si](O[C@H](c1ccccc1)c1cn(Cc2ccccc2)nn1)(C(C)C)C(C)C",
    "Reported Property": "composite z-score",
    "Observed Measurement": 0.187
  },
  {
    "Molecule": "CCN(CC)c1ccc(N2CC=CC34O[C@@H]5C=CCOC(=O)[C@@H]5[C@H]3C(=O)N(C(C)CO)[C@@H]4C2=O)cc1 (some centres not stated)",
    "Reported Property": "composite z-score",
    "Observed Measurement": -1.35
  },
  {
    "Molecule": "C=C(/C(=C/C[C@H](OC(=O)c1ccncc1)c1cccc(OCCO)c1)c1cc(C(=O)OC)ccc1OC)C(C)C",
    "Reported Property": "composite z-score",
    "Observed Measurement": -1.23
  },
  {
    "Molecule": "CC(C)(C)OC(=O)CC[C@@]1(C(=O)N2CCOCC2)N=C(c2ccc(OCCCO)cc2)O[C@@H]1c1ccccc1",
    "Reported Property": "composite z-score",
    "Observed Measurement": -1.26
  },
  {
    "Molecule": "[N-]=[N+]=NCc1ccccc1C[C@@]1(C(=O)O)N=C(c2ccc(OCCCO)cc2)O[C@@H]1c1ccccc1",
    "Reported Property": "composite z-score",
    "Observed Measurement": -1.24
  }
]

----------
- Measurement Description: basal 3T3-L1 adipocyte mitochondrial potential changes, profiling panel, cell-based, JC-1 fluorescence, 3T3-L1 adipocytes, 24 h, 100 nL compound (AID 1168)
- Condition: JC-1 mitochondrial fluorescence, higher = more signal, called active from +8 up or from −8 down
// N strictly below 0.8 in z-score; Y otherwise

[
  {
    "Query Smiles": "C=C(COC)/C(=C/C[C@H](OC(C)=O)c1ccc(CO)o1)c1cnc2ccccc2c1",
    "Category Label": "N"
  },
  {
    "Query Smiles": "C=CCNC(=O)[C@@H]1[C@H]2C(=O)O[C@H](c3ccccc3)[C@H](c3ccccc3)N2[C@H](c2ccc(O)cc2)[C@@]12C(=O)N(C(=O)OCCOC)c1ccc(C#Cc3ccc(OC)cc3)cc12",
    "Category Label": "Y"
  },
  {
    "Query Smiles": "C=CCOC(=O)[C@H]1[C@@H]2C(=O)O[C@@H](c3ccccc3)[C@@H](c3ccccc3)N2[C@@H](c2ccc(OCCOC(=O)[C@H]3C[C@H]4C(=O)N5CCC[C@H]5C(=O)N4[C@H]3c3cccc(OCCO)c3)cc2)[C@]12C(=O)Nc1ccccc12",
    "Category Label": "N"
  },
  {
    "Query Smiles": "O=C1c2ccccc2C(=O)c2cc([C@H]3Oc4ccccc4S(=O)(=O)N4CCC[C@@H]34)ccc21",
    "Category Label": "N"
  },
  {
    "Query Smiles": "COC(=O)c1c(CC[C@@H](CO)NC(=O)Nc2ccc(OC)cc2)oc(C(=O)Cc2ccccc2)c1C(=O)OC",
    "Category Label": "N"
  }
]

The origin of these recorded values is PubChem BioAssay.
